The reported measurements were obtained from patent US9278947B2.

Test system: [^3H]dopamine uptake into rat brain synaptosomes
Experimental Details: [^3H]dopamine uptake by rat brain synaptosomes
Assay type: biochemical
Reported Conditions: rat brain synaptosomes; read-out: concentration inhibiting [^3H]dopamine uptake by 50%
Test Readout: pIC50
Schema: pIC50 number; meaning minus log10 of the concentration expressed in molar units.

Req: For OC1(c2ccc(Cl)cc2)c2ccccc2C2=NCCN21 (stereo not shown) , what is its reported pIC50?
Resp: 7.35

* * *

Test system: [^3H]noradrenaline uptake into rat brain synaptosomes
Experimental Details: [^3H]noradrenaline uptake by rat brain synaptosomes
Format: biochemical
Reported Conditions: rat brain synaptosomes; read-out: concentration inhibiting [^3H]noradrenaline uptake by 50%
Test Readout: pIC50
Schema: pIC50 number; meaning minus log10 of the concentration expressed in molar units.

Req: For OC1(c2ccc(Cl)cc2)c2ccccc2C2=NCCN21 (stereo not shown) [mazindol] , what is its reported pIC50?
Resp: 8.07
